Measured viability, T/C values are reported for all entries that follow.
System: SK-MEL-2 multi-cell spheroids, viability
Protocol: Anticancer human tumor SK-MEL-2 cell line growth inhibition [TAK];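 note: spheroids exposed to drugs for seven days before readout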;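 for viability, T/C: percent of DMSO vehicle control luminescence so 100% = untreated viability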
Assay Context: second compound 0.3 µM; first compound 0.001 µM; stronger effect = lower value
// return numeric value only (unit: %, not printed)

Consider the reported viability, T/C for these compounds:
CC(C)CC(NC(=O)C(Cc1ccccc1)NC(=O)c1cnccn1)B(O)O (centres undefined) + CC(C)NCC(C(=O)N1CCN(c2ncnc3c2C(C)CC3O)CC1)c1ccc(Cl)cc1 | 117
CC(C)CC(NC(=O)CNC(=O)c1cc(Cl)ccc1Cl)B1OC(=O)CC(CC(=O)O)(C(=O)O)O1 (centres undefined) + CC(C)NCC(C(=O)N1CCN(c2ncnc3c2C(C)CC3O)CC1)c1ccc(Cl)cc1 | 94.7
COC1CC2CCC(C)C(O)(O2)C(=O)C(=O)N2CCCCC2C(=O)OC(C(C)CC2CCC(OCCO)C(OC)C2)CC(=O)C(C)C=C(C)C(O)C(OC)C(=O)C(C)CC(C)C=CC=CC=C1C (centres undefined) + CC(C)NCC(C(=O)N1CCN(c2ncnc3c2C(C)CC3O)CC1)c1ccc(Cl)cc1 | 60.3

Short answer for CC(C)n1nc(-c2ccc3oc(N)nc3c2)c2c(N)ncnc21 + CC(C)NCC(C(=O)N1CCN(c2ncnc3c2C(C)CC3O)CC1)c1ccc(Cl)cc1 : viability, T/C was 92.4

====

System: SK-MEL-2 multi-cell spheroids, viability
Protocol: Anticancer human tumor SK-MEL-2 cell line growth inhibition [TAK];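 note: spheroids exposed to drugs for seven days before readout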
Assay Context: curve of first compound; second compound 30 µM
The threshold is 10 nM. Values of IC50 beneath it are tagged met; values meeting or exceeding it are tagged not met.

Some solved entries appear below for comparison.
CC(C)CC(NC(=O)C(Cc1ccccc1)NC(=O)c1cnccn1)B(O)O (stereo not drawn) + CC(C)NCC(C(=O)N1CCN(c2ncnc3c2C(C)CC3O)CC1)c1ccc(Cl)cc1 | met
CC(C)n1nc(-c2ccc3oc(N)nc3c2)c2c(N)ncnc21 + CC(C)NCC(C(=O)N1CCN(c2ncnc3c2C(C)CC3O)CC1)c1ccc(Cl)cc1 | met
CC(=O)Nc1cccc(-n2c(=O)n(C3CC3)c(=O)c3c(Nc4ccc(I)cc4F)n(C)c(=O)c(C)c32)c1 + CC(C)NCC(C(=O)N1CCN(c2ncnc3c2C(C)CC3O)CC1)c1ccc(Cl)cc1 | met

API: query returns whether the compound falls strictly under 10 nM in IC50. Query: Cc1nc(NC(=O)N2CCCC2C(N)=O)sc1-c1ccnc(C(C)(C)C(F)(F)F)c1 (stereo not drawn) + CC(C)NCC(C(=O)N1CCN(c2ncnc3c2C(C)CC3O)CC1)c1ccc(Cl)cc1 not met

API: query returns whether the compound falls strictly under 10 nM in IC50. Query: Cn1cnc2c(F)c(Nc3ccc(Br)cc3Cl)c(C(=O)NOCCO)cc21 + CC(C)NCC(C(=O)N1CCN(c2ncnc3c2C(C)CC3O)CC1)c1ccc(Cl)cc1 met

API: query returns whether the compound falls strictly under 10 nM in IC50. Query: CC(C)(C)c1nc(-c2cccc(NS(=O)(=O)c3c(F)cccc3F)c2F)c(-c2ccnc(N)n2)s1 + CC(C)NCC(C(=O)N1CCN(c2ncnc3c2C(C)CC3O)CC1)c1ccc(Cl)cc1 not met

API: query returns whether the compound falls strictly under 10 nM in IC50. Query: CCCS(=O)(=O)Nc1ccc(F)c(C(=O)c2c[nH]c3ncc(-c4ccc(Cl)cc4)cc23)c1F + CC(C)NCC(C(=O)N1CCN(c2ncnc3c2C(C)CC3O)CC1)c1ccc(Cl)cc1 not met

====

System: SK-MEL-2 multi-cell spheroids, viability
Protocol: Anticancer human tumor SK-MEL-2 cell line growth inhibition [TAK];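 note: spheroids exposed to drugs for seven days before readout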;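 for viability, T/C: percent of DMSO vehicle control luminescence so 100% = untreated viability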
Assay Context: second compound 0.3 µM; first compound 0.01 µM; stronger effect = lower value
Measured viability, T/C values are reported for all entries that follow.
// return numeric value only (unit: %, not printed)

Consider the reported viability, T/C for these compounds:
COC1CC2CCC(C)C(O)(O2)C(=O)C(=O)N2CCCCC2C(=O)OC(C(C)CC2CCC(OCCO)C(OC)C2)CC(=O)C(C)C=C(C)C(O)C(OC)C(=O)C(C)CC(C)C=CC=CC=C1C (stereo not given) + CC(C)NCC(C(=O)N1CCN(c2ncnc3c2C(C)CC3O)CC1)c1ccc(Cl)cc1 | 49.6
COc1c(OCCCN2CCOCC2)ccc2c3n(c(=NC(=O)c4cnc(N)nc4)nc12)CCN3 + CC(C)NCC(C(=O)N1CCN(c2ncnc3c2C(C)CC3O)CC1)c1ccc(Cl)cc1 | 72.5

Short answer for CC(C)n1nc(-c2ccc3oc(N)nc3c2)c2c(N)ncnc21 + CC(C)NCC(C(=O)N1CCN(c2ncnc3c2C(C)CC3O)CC1)c1ccc(Cl)cc1 : viability, T/C was 76.8

Short answer for CC(C)CC(NC(=O)C(Cc1ccccc1)NC(=O)c1cnccn1)B(O)O (stereo not given) + CC(C)NCC(C(=O)N1CCN(c2ncnc3c2C(C)CC3O)CC1)c1ccc(Cl)cc1 : viability, T/C was 103

Short answer for CC(C)CC(NC(=O)CNC(=O)c1cc(Cl)ccc1Cl)B1OC(=O)CC(CC(=O)O)(C(=O)O)O1 (stereo not given) + CC(C)NCC(C(=O)N1CCN(c2ncnc3c2C(C)CC3O)CC1)c1ccc(Cl)cc1 : viability, T/C was 64.9

====

Tested on: SK-MEL-2 multi-cell spheroids, viability
Protocol: Anticancer human tumor SK-MEL-2 cell line growth inhibition [TAK]; active means viability on the fitted dose curve at most 10% of control; inactive means the rest;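 note: spheroids exposed to drugs for seven days before readout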
Assay Context: second compound 0.949 µM; first compound 0.1 µM
Description: Combinatorial screen of targeted agents with TAK-243 and ipatasertib in multi-cell type tumor spheroids […] Compounds. […] If the clinical Cmax for an agent had not been determined, the highest concentration tested was 10 microM. NCI60 Cell Culture. […] The optimal seeding densities for each of the cell lines at each time point assessed were determined prior to performing the concentration response studies. […]
Your answer must be one of the following: Y (active), N (inactive)

COc1c(OCCCN2CCOCC2)ccc2c3n(c(=NC(=O)c4cnc(N)nc4)nc12)CCN3 + CC(C)NCC(C(=O)N1CCN(c2ncnc3c2C(C)CC3O)CC1)c1ccc(Cl)cc1 | N
Cc1nc(NC(=O)N2CCCC2C(N)=O)sc1-c1ccnc(C(C)(C)C(F)(F)F)c1 (stereo unspecified) + CC(C)NCC(C(=O)N1CCN(c2ncnc3c2C(C)CC3O)CC1)c1ccc(Cl)cc1 | N
COC1CC2CCC(C)C(O)(O2)C(=O)C(=O)N2CCCCC2C(=O)OC(C(C)CC2CCC(OCCO)C(OC)C2)CC(=O)C(C)C=C(C)C(O)C(OC)C(=O)C(C)CC(C)C=CC=CC=C1C (stereo unspecified) + CC(C)NCC(C(=O)N1CCN(c2ncnc3c2C(C)CC3O)CC1)c1ccc(Cl)cc1 | N

Test call for this compound, please: CC(C)CC(NC(=O)CNC(=O)c1cc(Cl)ccc1Cl)B1OC(=O)CC(CC(=O)O)(C(=O)O)O1 (stereo unspecified) + CC(C)NCC(C(=O)N1CCN(c2ncnc3c2C(C)CC3O)CC1)c1ccc(Cl)cc1 Y

Test call for this compound, please: CC(C)n1nc(-c2ccc3oc(N)nc3c2)c2c(N)ncnc21 + CC(C)NCC(C(=O)N1CCN(c2ncnc3c2C(C)CC3O)CC1)c1ccc(Cl)cc1 N

Test call for this compound, please: CC(C)(C)c1nc(-c2cccc(NS(=O)(=O)c3c(F)cccc3F)c2F)c(-c2ccnc(N)n2)s1 + CC(C)NCC(C(=O)N1CCN(c2ncnc3c2C(C)CC3O)CC1)c1ccc(Cl)cc1 N

====

Tested on: SK-MEL-2 multi-cell spheroids, viability
Protocol: Anticancer human tumor SK-MEL-2 cell line growth inhibition [TAK]; active means viability on the fitted dose curve at most 10% of control; inactive means the rest;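 note: spheroids exposed to drugs for seven days before readout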
Assay Context: second compound 9.49 µM; first compound 0.1 µM
Your answer must be one of the following: true (active), false (inactive)

Some solved entries appear below for comparison.
COC1CC2CCC(C)C(O)(O2)C(=O)C(=O)N2CCCCC2C(=O)OC(C(C)CC2CCC(OCCO)C(OC)C2)CC(=O)C(C)C=C(C)C(O)C(OC)C(=O)C(C)CC(C)C=CC=CC=C1C (stereo unspecified) + CC(C)NCC(C(=O)N1CCN(c2ncnc3c2C(C)CC3O)CC1)c1ccc(Cl)cc1 | false
CC(C)n1nc(-c2ccc3oc(N)nc3c2)c2c(N)ncnc21 + CC(C)NCC(C(=O)N1CCN(c2ncnc3c2C(C)CC3O)CC1)c1ccc(Cl)cc1 | false

Test call for this molecule, please: CC(C)CC(NC(=O)CNC(=O)c1cc(Cl)ccc1Cl)B1OC(=O)CC(CC(=O)O)(C(=O)O)O1 (stereo unspecified) + CC(C)NCC(C(=O)N1CCN(c2ncnc3c2C(C)CC3O)CC1)c1ccc(Cl)cc1 true

Test call for this molecule, please: Cc1nc(NC(=O)N2CCCC2C(N)=O)sc1-c1ccnc(C(C)(C)C(F)(F)F)c1 (stereo unspecified) + CC(C)NCC(C(=O)N1CCN(c2ncnc3c2C(C)CC3O)CC1)c1ccc(Cl)cc1 false

Test call for this molecule, please: CC(C)(C)c1nc(-c2cccc(NS(=O)(=O)c3c(F)cccc3F)c2F)c(-c2ccnc(N)n2)s1 + CC(C)NCC(C(=O)N1CCN(c2ncnc3c2C(C)CC3O)CC1)c1ccc(Cl)cc1 false

Test call for this molecule, please: COc1c(OCCCN2CCOCC2)ccc2c3n(c(=NC(=O)c4cnc(N)nc4)nc12)CCN3 + CC(C)NCC(C(=O)N1CCN(c2ncnc3c2C(C)CC3O)CC1)c1ccc(Cl)cc1 false
